Provenance of the data: patent US20130252930A1

- Target desc: Cyp21 enzyme (Human HEK 293-Cyp21 stable transfected cells) (Homo sapiens, UniProt P08686)
- Construct: expressed in transfected cells
- Sequence (P08686 whole entry): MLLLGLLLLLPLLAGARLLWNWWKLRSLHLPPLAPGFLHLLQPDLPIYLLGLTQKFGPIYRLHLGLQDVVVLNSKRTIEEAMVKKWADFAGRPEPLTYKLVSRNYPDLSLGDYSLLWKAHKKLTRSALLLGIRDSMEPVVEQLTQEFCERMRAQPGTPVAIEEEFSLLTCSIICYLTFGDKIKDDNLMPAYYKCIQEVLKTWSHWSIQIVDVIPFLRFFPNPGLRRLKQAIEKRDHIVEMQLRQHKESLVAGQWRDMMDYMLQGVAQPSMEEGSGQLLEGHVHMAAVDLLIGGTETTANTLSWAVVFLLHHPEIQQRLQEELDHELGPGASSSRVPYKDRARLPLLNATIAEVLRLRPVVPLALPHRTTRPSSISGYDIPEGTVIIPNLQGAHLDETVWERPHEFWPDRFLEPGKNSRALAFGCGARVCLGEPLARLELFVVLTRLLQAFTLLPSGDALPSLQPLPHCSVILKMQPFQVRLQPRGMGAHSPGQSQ
- Procedure details: CYP21-HEK293 enzymatic assay (IC50) (Biological Example 11)
- Assay type: cell-based
- Conditions: HEK 293-Cyp21 cells; read-out: CYP21-HEK293 enzymatic assay IC50 (Biological Example No. 11)
pIC50: −log10 of the molar value.
Property: pIC50

// known answers, use as guide
{"Compound": "C[C@]12CCC(=O)C=C1C1(CC1)C[C@@H]1[C@@H]2CC[C@]2(C)C(c3cccnc3)=CC[C@@H]12 [Compound 313]", "Measurement": "> 8.00"}
{"Compound": "C[C@]12CC[C@@H](NS(=O)(=O)C3CC3)CC1=CC[C@@H]1[C@@H]2CC[C@]2(C)C(c3cccnc3)=CC[C@@H]12 [Compound 228]", "Measurement": "< 6.00"}
{"Compound": "CCC(=O)N1CCC[C@@]2(C)[C@@H](CC[C@@H]3[C@@H]2CC[C@]2(C)C(n4ccnc4)=CC[C@@H]32)C1 [Compound 441]", "Measurement": "7.00 to 8.00"}

Parameter requested: pIC50. Apply to each item below.
1. Cc1cccc(C)c1C(=O)O[C@H]1CC[C@@]2(C)C(=CCC3C4=CC=C(c5cccnc5)[C@@]4(C)CCC32)C1 (stereo partly shown) [Compound 196]
2. C[C@]12CCC3C(CC=C4C=CCC[C@@]43C)C1=CC=C2c1cccnc1 (stereo partly shown) [Compound 197]
3. C[C@]12CC[C@H]3[C@@H](CCC4=CC(=O)C=C[C@@]43C)C1=CC=C2c1cccnc1 [Compound 290]

1. < 6.00
2. < 6.00
3. 7.00 to 8.00

// compound C[C@]12CCC3C(C=CC4=C(O)C(=O)CC[C@@]43C)C1=CC=C2c1cccnc1 (stereo partly shown) [Compound 297] , assay Cyp21 enzyme (Human HEK 293-Cyp21 stable transfected cells) (Homo sapiens, UniProt P08686), pIC50 value: < 7.00
